Value source: the supplement of paper PMC11908140

Below is a list of entries, each paired with its recorded 8OG:A repair function score value.
B1: library; numbered along this chain (parent)
chain: MRKPRAAVGSGHRKQAASQEGRQKHAKNNSQAKPSACDGLARQPEEVVLQASVSSYHLFRDVAEVTAFRGSLLSWYDQEKRDLPWRRRAEDEMDLDRRAYAVWVSEVMLQQTQVATVINYYTGWMQKWPTLQDLASASLEEVNQLWAGLGYYSRGRRLQEGARKVVEELGGHMPRTAETLQQLLPGVGRYTAGAIASIAFGQATGVVDGNVARVLCRVRAIGADPSSTLVSQQLWGLAQQLVDPARPGDFNQAAMELGATVCTPQRPLCSQCPVESLCRARQRVEQEQLLASGSLSGSPDVEECAPNTGQCHLCLPPSEPWDQTLGVVNFPRKASRKPPREESSATCVLEQPGALGAQILLVQRPNSGLLAGLWEFPSVTWEPSEQLQRKALLQELQRWAGPLPATHLRHLGEVVHTFSHIKLTYQVYGLALEGQTPVTTVPPGARWLTQEEFHTAAVSTAMKKVFRVYQGQQPGTCMGSKRSQVSSPCSRKKPRMGQQVLDNFFRSHISTDAHSLNSAAQ

Variants of: B1
experiment_description: 8OG:A repair function score (normalized; synonymous = 0, nonsense = -1) (normalized log-likelihood score); higher = more repair activity (WT-like);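 further: cells sorted at 72 h after reporter transfection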
condition_details: with 8OG:A DNA repair reporter (GFP) in HEK-293 MUTYH KO cells
measurement_name: 8OG:A repair function score

{"columns": ["mutation_list", "measurement_name", "result_value"],
 "data": [
  ["R217Q", "8OG:A repair function score", -1.03],
  ["S136F", "8OG:A repair function score", -0.278],
  ["N307Q", "8OG:A repair function score", -0.00475],
  ["Y120G", "8OG:A repair function score", -0.347],
  ["V48D", "8OG:A repair function score", 0.0961],
  ["A461V", "8OG:A repair function score", -0.124],
  ["R495C", "8OG:A repair function score", -0.00275]
]}
